- Test system: SF-268
- experimentSummary: NCI tumour cell line growth inhibition, 48 h
Activity calls are given as the source filed them. Cut-off read from the data, not from the text of the source: active = GI50 up to about 1.1 µM and inactive = higher.
quantity: GI50

Answered cases to consult:
molecule: COc1ccc(-c2cc(=O)c3c(OC)c(O)c(OC)cc3o2)cc1
systemName: SF-268
GI50: 91.4 µM (inactive)
--
molecule: CCOC(=O)c1nc2ccc(C(F)(F)F)cc2nc1NCc1ccc(Cl)c(Cl)c1
systemName: SF-268
GI50: 39.9 µM (inactive)
--
molecule: CN(Cc1ccccc1)c1cc(=O)n(C)c(=O)[nH]1
systemName: SF-268
GI50: > 100 µM (inactive)
--
molecule: NC(=O)c1cn(C2OC(CO)C(O)C2O)c(=O)[nH]c1=O (configuration not stated)
systemName: SF-268
GI50: > 100 µM (inactive)
--
molecule: O=C1OC[C@@H]2Cc3c([nH]c4ccccc34)[C@@H](c3ccc(O)cc3)N12
systemName: SF-268
GI50: 42.6 µM (inactive)

For the molecule N#CC(O)CCOCc1ccccc1 (configuration not stated) , what GI50 is on record? 5.56 µM (inactive)

For the molecule C=C(Cl)C(=C)CCC(Cl)C(C)C (configuration not stated) , what GI50 is on record? > 100 µM (inactive)

For the molecule Cc1ccc2c(c1)CC1(C2)Cc2ccc(C)cc2C1=O (configuration not stated) , what GI50 is on record? 32 µM (inactive)

* * *

- Test system: SK-MEL-2
- experimentSummary: NCI tumour cell line growth inhibition, 48 h
Calls of active or inactive are those of the source. Rule as the data show it: active = GI50 up to about 1.1 µM and inactive = higher.
Listed here: items and their measured GI50.

Quick check: GI50 on SK-MEL-2, item Cn1c(S)nc2c(Cl)cc(Cl)cc2c1=O ? > 100 µM (inactive)

Quick check: GI50 on SK-MEL-2, item Clc1ccc(C2=C(c3ccccc3)C(c3ccc(Cl)cc3)N3C(=N[C@H]4CCCC[C@@H]43)N2)cc1 (some centres not stated) ? 16.4 µM (inactive)

Quick check: GI50 on SK-MEL-2, item CCOC(=O)c1nc2ccc(C(F)(F)F)cc2nc1NCc1ccc(Cl)c(Cl)c1 ? 63.8 µM (inactive)

Quick check: GI50 on SK-MEL-2, item CC1=Nc2ccccc2C12C(c1ccccc1)C(c1ccccc1)C(=O)N1c3ccccc3CC12 (configuration not stated) ? > 100 µM (inactive)

Quick check: GI50 on SK-MEL-2, item COC1=C(C(c2cc(OC)c(OC)c(OC)c2)c2cc3c(cc2OC)OCO3)C(=O)OC1 (configuration not stated) ? 45.2 µM (inactive)

Quick check: GI50 on SK-MEL-2, item Cc1ccc(Nc2n[nH]c(NS(=O)(=O)c3cc(C)c(Cl)cc3S)n2)cc1 ? > 100 µM (inactive)

Quick check: GI50 on SK-MEL-2, item CC(C)CC(NC(=O)C(CCI)Cc1ccccc1)C(=O)Nc1ccccc1 (configuration not stated) ? > 100 µM (inactive)

Quick check: GI50 on SK-MEL-2, item Cc1ccc(S(=O)(=O)OC(COC(=O)c2ccccc2)C(OS(=O)(=O)c2ccc(C)cc2)C(OS(=O)(=O)c2ccc(C)cc2)C(COC(=O)c2ccccc2)OS(=O)(=O)c2ccc(C)cc2)cc1 (configuration not stated) ? > 100 µM (inactive)

Quick check: GI50 on SK-MEL-2, item O=C1c2cccnc2-c2nccc3ccnc1c23 ? 2.16 µM (inactive)

Quick check: GI50 on SK-MEL-2, item O=c1[nH]cc(/C=N\Nc2ccccc2)c(=O)[nH]1 ? > 100 µM (inactive)

Quick check: GI50 on SK-MEL-2, item C[C@@]12CCC(=O)C=C1CC[C@H]1C2=CC[C@]2(C)C1CC[C@@]2(C)O (some centres not stated) ? 38 µM (inactive)

Quick check: GI50 on SK-MEL-2, item COc1ccc(-c2c3c([nH]c(=S)c2C#N)CC(C)(C)CC3=O)cc1 ? > 100 µM (inactive)

Quick check: GI50 on SK-MEL-2, item CN(CCN(C)CCN(C)C(=O)Cc1ccc(Cl)c(Cl)c1)CCN1CCCC1 ? 16 µM (inactive)

Quick check: GI50 on SK-MEL-2, item O=C1C(=O)N(c2ccc(Cl)cc2Cl)C(=O)C(=O)C1c1nc2ccccc2s1 ? > 100 µM (inactive)

Quick check: GI50 on SK-MEL-2, item O=C(O)c1cccc(CN2CCCCC2)c1 ? > 100 µM (inactive)

Quick check: GI50 on SK-MEL-2, item CCc1nnc(CC)n1NCCCC(=O)O ? > 100 µM (inactive)
